tested on: HCV replicon in Huh-7 cells; experiment: HCV replicon assay (NPT ELISA) for inhibition of HCV replication; type: cell-based; settings: Hepatitis C virus, Huh-7, 72 h, HCV replicon-containing Huh-7 cells, three days incubation; read-out: EC50
Measured EC50 accompanies every entry in the list below.
assay.endpoint: EC50

{"compound": "COc1ccc2c(O[C@@H]3C[C@H]4C(=O)N[C@]5(C(=O)NS(=O)(=O)C6CC6)C[C@H]5/C=C\\CCCC(=O)N[C@@H](CC(=O)N5CCCCC5)C(=O)N4C3)cc(-c3ccccc3)nc2c1 [Compound 15]", "reading": "< 1000 nM"}
{"compound": "COc1ccc2c(O[C@@H]3C[C@H]4C(=O)N[C@]5(C(=O)NS(=O)(=O)C6CC6)C[C@H]5/C=C\\CCCC(=O)N[C@@H](C(C)(C)C)C(=O)N4C3)cc(-c3nc(C(C)C)cs3)nc2c1C [Compound 19]", "reading": "1000 to 10000 nM"}
{"compound": "C=CCCCC(=O)N[C@@H](C(=O)N1C[C@H](Oc2cc(-c3ccccc3)nc3cc(OC)ccc23)C[C@H]1C(=O)N[C@]1(C(=O)NS(=O)(=O)C2CC2)C[C@H]1C=C)C(C)(C)C [Compound 7]", "reading": "1000 to 10000 nM"}
